- protocol_notes: self-splicing fitness, log relative to wild type (ln ratio); higher = more splicing; Tetrahymena group I intron in knt gene, E. coli kanamycin selection, DiMSum; sequences stand for … in CUCUCU…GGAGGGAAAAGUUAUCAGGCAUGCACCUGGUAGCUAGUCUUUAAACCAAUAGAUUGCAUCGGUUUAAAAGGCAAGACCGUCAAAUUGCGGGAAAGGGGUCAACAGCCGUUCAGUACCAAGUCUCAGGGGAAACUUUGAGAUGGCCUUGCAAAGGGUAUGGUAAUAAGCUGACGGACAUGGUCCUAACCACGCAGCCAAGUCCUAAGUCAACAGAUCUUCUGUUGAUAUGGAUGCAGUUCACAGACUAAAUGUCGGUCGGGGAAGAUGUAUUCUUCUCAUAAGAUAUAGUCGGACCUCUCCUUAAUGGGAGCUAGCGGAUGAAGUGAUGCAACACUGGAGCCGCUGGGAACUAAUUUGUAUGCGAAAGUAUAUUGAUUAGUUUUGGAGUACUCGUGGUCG;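 note: selection with 25 µg/mL kanamycin versus none on LB agar overnight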
- run_conditions: 30 °C
Mark not fulfilled for self-splicing fitness (ln) values under -3, and fulfilled for everything at or above.

Qu. Reported self-splicing fitness (ln) reaches at least -3 for `CGUUAGCAAUAUUACGUUAU` ?
Ans. fulfilled

Qu. Reported self-splicing fitness (ln) reaches at least -3 for `CGCCAGCAAUAUUACGCCUG` ?
Ans. fulfilled

Qu. Reported self-splicing fitness (ln) reaches at least -3 for `AGAAAGCAAUAUUACGUUGG` ?
Ans. not fulfilled

Qu. Reported self-splicing fitness (ln) reaches at least -3 for `CUACAGCAAUAUUACGGUGU` ?
Ans. not fulfilled

Qu. Reported self-splicing fitness (ln) reaches at least -3 for `UCCUAGCAAUAUUACGUGAG` ?
Ans. fulfilled

Qu. Reported self-splicing fitness (ln) reaches at least -3 for `AUGCAGCAAUAUUACGUAAG` ?
Ans. fulfilled

Qu. Reported self-splicing fitness (ln) reaches at least -3 for `ACUAAGCAAUAUUACGUUUU` ?
Ans. fulfilled

Qu. Reported self-splicing fitness (ln) reaches at least -3 for `CCCGAGCAAUAUUACGAGAU` ?
Ans. not fulfilled

Qu. Reported self-splicing fitness (ln) reaches at least -3 for `GUUGAGCAAUAUUACGCGCA` ?
Ans. fulfilled

Qu. Reported self-splicing fitness (ln) reaches at least -3 for `UCUUAGCAAUAUUACGGUAC` ?
Ans. not fulfilled

Qu. Reported self-splicing fitness (ln) reaches at least -3 for `AAUGAGCAAUAUUACGAGGU` ?
Ans. not fulfilled

Qu. Reported self-splicing fitness (ln) reaches at least -3 for `CGUAAGCAAUAUUACGUAGC` ?
Ans. not fulfilled

Values from the supplement of paper PMC7877785
